Value source: the supplement of paper PMC6555819

- System: PPARg DBDmut IVT, anti-PPARg (DBD mutation: PPARg1 K132A/R137A, NR concentration 270 nM)
- methodDescription: PBM binding z-score (relative to random genomic background probes); higher = stronger binding; sequences stand for … in GC…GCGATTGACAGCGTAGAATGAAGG
experimentalReadout: PBM binding z-score
Lab note: jot the number down without any unit.

Identify the reported PBM binding z-score for the following entry. TGAATGAGGTTATAAGATCAGGAAACGTTGCAAA
1.12

Identify the reported PBM binding z-score for the following entry. ACAAGCAGGCCAAGTTTGGGTCACTCAAACAAAG
-0.239

Identify the reported PBM binding z-score for the following entry. TGAATGAGGTTATAAGTTCAGGGAACGTTGCAAA
0.599

Identify the reported PBM binding z-score for the following entry. TAGCCTAGGTCATGGGCCAATATACCACGCGAAC
-0.176

Identify the reported PBM binding z-score for the following entry. CCGACTGGGGCAGAAAGGCTACCATACCATCCGG
-1.37

Identify the reported PBM binding z-score for the following entry. ATCGAAAGGTCGACGAGGGGAGTATACACCGTTT
0.0319

Identify the reported PBM binding z-score for the following entry. CGTTCAAGGTCAGAGAGGTCAGTGAATGCCGAGT
1.56

Identify the reported PBM binding z-score for the following entry. AGTGAAAGTTCACTAGGTAACGTAAGATTCAGCT
0.57

Identify the reported PBM binding z-score for the following entry. CGGACTAGGTCATTGACAGGACAGTGAATAGTAA
0.689

Identify the reported PBM binding z-score for the following entry. CAAACTAGGTCAAGAGTTCAAAGTCCGCTTCCCG
5.84

Identify the reported PBM binding z-score for the following entry. TCTGCTAGGTCAACGATGGTCAGCAAATCTGCTA
0.166

Identify the reported PBM binding z-score for the following entry. CTACCAAGGTAAACAAGGTCGTTGATTACTATTC
0.206

Identify the reported PBM binding z-score for the following entry. TCGAGTAGGTTAGTCGGGACATTCAGCCAACATA
-1.31

Identify the reported PBM binding z-score for the following entry. CGTCCAAGGTCAGCAGGTCAGTAAAAGCGACGTG
-0.726

Identify the reported PBM binding z-score for the following entry. ACTTGCAGGCCAAGGGTCACTCAAGATTAGTCCG
-0.141

Identify the reported PBM binding z-score for the following entry. ATCTCTAGGTAACAAGTACAGTGAAAGAGAGGAC
0.83

Identify the reported PBM binding z-score for the following entry. CCAGACAGGTGAACGGTAACTCAGTCTGGTACGC
-0.154

Identify the reported PBM binding z-score for the following entry. TCTTGTAGATCAAACGTTAAGAAAGCCGAAGCCT
0.516

Identify the reported PBM binding z-score for the following entry. CCTACTAGGTCAATGGTCAGCTAAAGCAGCTCGC
1.05

Identify the reported PBM binding z-score for the following entry. CCTACTGGGCCAAGGTCATCGATCAGTCAAAGCA
-0.598

Identify the reported PBM binding z-score for the following entry. CAAACTAGGTCACAGAGGTCAAGGTCCGTGCGTA
2.54

Identify the reported PBM binding z-score for the following entry. TCTGCTAGGTCAGTTGGTCAGCTGACGAGCTGCC
1.47

Identify the reported PBM binding z-score for the following entry. AGAACGAGGGCACGCGGAGTTGATAGCAGAGTAG
-0.521

Identify the reported PBM binding z-score for the following entry. CTCGAAAGGTCGTGCTCAGGTCAGTATACCAAAC
1.38

Identify the reported PBM binding z-score for the following entry. ACTAGCAGGCCAATGGTCACTCAAGATTAGTCCG
-0.449

Identify the reported PBM binding z-score for the following entry. GTGCCAAGGTGAATAGGTCGTTGATGAGTAGGCG
-0.755

Identify the reported PBM binding z-score for the following entry. CCTTACGGGTCACTGACAGGTTATTGCATTTGGA
0.563

Identify the reported PBM binding z-score for the following entry. TAGCCTGGGTCATTGGGCCAGTATAGTACGCATC
-0.475

Identify the reported PBM binding z-score for the following entry. ACTTACGGGTCAACGAGATTATAGCACGCGTATA
2.1

Identify the reported PBM binding z-score for the following entry. TAGCCTAGGTCATTAAGGGGCCAGTATAGAAAGC
0.198

Identify the reported PBM binding z-score for the following entry. CCTAGCAGGCCAGTCTGGGTCACTCAAGGCTTGA
-2.16

Identify the reported PBM binding z-score for the following entry. TCTGCTAGGTCAACGATGGTCGGCTAATCTGCTA
-0.0502

Identify the reported PBM binding z-score for the following entry. TCTTGTAGATCAATAGAGGTTAAGAAAGTGCGCT
0.475

Identify the reported PBM binding z-score for the following entry. ATCGGAAGGTCGAAGGTGAGTATACCCACCCGAA
-0.28

Identify the reported PBM binding z-score for the following entry. CAGCCTAAGTCAGGGCCAGTATAGGAGGAACGTT
-1.43

Identify the reported PBM binding z-score for the following entry. CTCGAAAGGTCGATTGAGGTGAGTATACGGATAA
0.11

Identify the reported PBM binding z-score for the following entry. CGTCCAAGGTCAATACTAGGTCAGTGAAAGCATT
0.663

Identify the reported PBM binding z-score for the following entry. CCTAGCAGGCCAACCTGGGTCACTCAAGGCTTGA
-0.95

Identify the reported PBM binding z-score for the following entry. TCTTTTAGATCAGCAGGTTAAGAAAGCTGGCCAA
0.837

Identify the reported PBM binding z-score for the following entry. CCCAGTAGGTTATGGGGCATTCAGGCAACGGTGA
-0.268

Identify the reported PBM binding z-score for the following entry. GCTGCTAGGTCAACTGATGCTCAGCTAAAGCTCG
-0.991
